Reference source: the RNAGym collection of RNA variant scans (doi:10.1073/pnas.2313332121)

B1: TPR t1 (parent)
chain: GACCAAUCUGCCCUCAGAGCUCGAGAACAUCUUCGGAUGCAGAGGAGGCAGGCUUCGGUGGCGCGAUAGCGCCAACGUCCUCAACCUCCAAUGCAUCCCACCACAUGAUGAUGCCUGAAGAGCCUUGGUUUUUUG

# Variants of: B1
# procedure_summary: polymerase ribozyme fitness, log enrichment relative to wild type (log ratio); higher = more active; in vitro selection for triplet polymerase activity
Category | rule: reported polymerase ribozyme fitness (log ratio) within range, see low: < -4; middle: ≥ -4 and < -1; high: ≥ -1

- primary_sequence: "GACCAAUCUGCCGUCAGAGCUCGACAACAUCUUCGGAUGCAGAGGAGGAAGGCUUCGGUGGCGCGAUAGCGCCAACGUCCUCAACCUCCAAUGCAUCUCACCACAUGAUGAAGCGUGAAGAGCCUUGGUUUUUUG [C13G G25C C49A C98U U112A C115G]"
  qualitative_label: "low"
- primary_sequence: "GACCAAUCUGCCCUCAGAGCUCGAGAACAUCUUCGGAUGCAGAGGAGGCAGGCUUCGGUGGCGCGAUAGCGCCAACGCCCUCAACCUCCAAUGCAUCCCACCACAUGAUGAUGACUGAAGAGCCUUGGUUUUUUG [U78C C114A]"
  qualitative_label: "middle"
- primary_sequence: "GACCAAUCUGCCCUCAGAGCUCGAGAUCAUCUUCGGAUGCAGAGGAGGCAGGCUUCGGUGGCGCGAUAGCGCCAACGCCCACAACCUCCAAUGUAUCCCACCACAUGAUGAUGCCUGAAGAGCCUUGGUUUUUUG [A27U U78C U81A C94U]"
  qualitative_label: "low"
- primary_sequence: "GACCAAUCUGCCCUCAGAGCUCGAGACCAUCUUCGGAUGCAGAGGAGGCAGGCUUCGGUGGCGCGAUAGCGCCAACGUCCUCAACCUCCAAUGCAUCCCACCACAUGAUGAUGCCUGAAAAGCCUUGGUUUUUUG [A27C G120A]"
  qualitative_label: "middle"
- primary_sequence: "GACCAAUCUGCCCUCAGAGCUCGAGAACAUCUUCGGAUGCAGAGGAGGCAGGCUUCGGUGGCACGAUAGCGCCAACGUCCUCAACCUCCAAUGCAUCCCACCACAUGAUGAUGCCUGAAGAGCCUUGGUUUUUUG [G63A]"
  qualitative_label: "high"
- primary_sequence: "GACCAAUCUGCCCUCAGAGCUCGAGAACAUCUUCGGAUGCAGAGGAGGCAGGCUUCGGUGGCGCGAUAGCGCCAACGUCCUAAACCUCCAAUGCAUCCCACCACAUGAUGAUGCCUGAAGAACCUUGGUUUUUUG [C82A G122A]"
  qualitative_label: "high"
- primary_sequence: "GACCAAUCUGCCCGCAGAGCUCGAGAACAUCUUCGGAUGCAGAGGAGGCAGGCUUCGGUGGCGCGAUAGCGCCAACGUCCUUAACCUCCAAUCCAUCCCACCACAUGAUGAUGCCUGAAGAGCCUUGGUUUUUUG [U14G C82U G93C]"
  qualitative_label: "middle"
- primary_sequence: "GACCAAUCUGCCCUCAGAGCUAGAGAACAUCUUCGGAUGCAGGGGUGGCAGGCUUCGGUGGCGCGAUAGCGUCAACGUCCUCAACCUCCAAUGCAUCCCACCACAUGAUGAUCCCGGAAGAGCCUUGGUUUUUUG [C22A A43G A46U C72U G113C U116G]"
  qualitative_label: "low"
- primary_sequence: "GACCAAUCUGCCCUCAGAGCUCGAGAACAUCUUCGGAUGCAUAGGAGGCAGGCUUCGGUGGCGCGAUAGCGCCAACGCCCUCAACCUCCAAUGCAUCCCACCACAUGAUGAUGCCUGAAGAGCCUUGGUUUUUUG [G42U U78C]"
  qualitative_label: "middle"
- primary_sequence: "GACCAAUCUGCCCUCAGUGCUCGAGAACAUCUUCGGAUGCAGAGGAGGCAGGCCUCGGUGGCGCGAUAGCGCCAACGUCCUCGACCUCCAAUGCAUCCCACCACAUGAAGAUGCCUGAAGAGCCUUGGUUUUUUG [A18U U54C A83G U109A]"
  qualitative_label: "low"
- primary_sequence: "GACCACUCUGCCCUCAGAGCUCGAGAACAUCUUCGGAUGCAGAGGAGGCAGGCUUCGGUGGCGCGAUAGCCCCAACGUCCUCAACCUCCAAUGCAUCCCACCACAUGAUGAUGCCUGAAGAGCCUUGGUUUUUUG [A6C G71C]"
  qualitative_label: "middle"
- primary_sequence: "GACCUAUCGGCCCUCAGAGCUCGAGAACAUCUUCGGAUGCAGAGGAAGCAGUCUUCGGUGGCGCGAUAGCGCCAACGUCCUCAACCUCCAAUGCAUCCCACCACAUGAUGAUGCCUGAAGAGCCUUGGUUUUUUG [A5U U9G G47A G52U]"
  qualitative_label: "middle"
- primary_sequence: "GAGCAAUCUGCCCUCAGAGCUCGAGAAUAUCUUCGGAUGCAGAGGAGGCAGGCUUCGGUGUCGCGAUAGCGCCAACGUCCUCAACCUCCAAUGCAUCCCACCACAUGAUGAUGCCUGAACAGCCGUGGUUUUUUG [C3G C28U G61U G120C U125G]"
  qualitative_label: "low"
- primary_sequence: "GACCAAUCUGCCUUCAGAGCUCGAGAACAUCUUCGGAUUCAGAUGAGGCAGGCUUCGGUGGCGCGAUAGCGCCAACGUCCUCAACCUCCAAUGCAUCCCACCACAUGAUGAUGCCUGAAGAGCCUUGGUUUUUUG [C13U G39U G44U]"
  qualitative_label: "middle"
- primary_sequence: "GACCAAUCGGCCCUCAGAGCUCGAGAACAUCUUCGGAUGCAGAGGAGGCAGGCUUCGGUGGAGCGAUAGCGCCAACGUCCUCAACCUCCAAUGCAUCCCACCACAUGAUGAUGCCUGAAGAGCCUUGGUUUUUUG [U9G C62A]"
  qualitative_label: "high"
- primary_sequence: "GACCAAUCUGCCCUCAGAGCUCGAGAACAUCUUCGUAUGCAGAGGAGGUAGGCUUCGGUGGCGCGAUAGCGCCAACGUCCUCAACCUCCAAUGCUUCCCACCACAUGAUGAUGCCUGAAGAGCCUUGGUUUUUUG [G36U C49U A95U]"
  qualitative_label: "middle"
- primary_sequence: "GACCAAUCUGUCCUCAGAGCUCGAGAACAUCUUCGGAUGCAGAGGAGGCAGGCUUCGGUGGCGCGAUAGCGCCAACGUCCUCAACCUCCAAUGCAUCCCACCACAUGAUGAUGCCUGGAGAGCCUUGGUUUUAUG [C11U A118G U133A]"
  qualitative_label: "high"
- primary_sequence: "GACCAAUCUGCCCUCAGAGCUCGAGAACAUCUUCGGAUGCAGAGGAGGCAGGCUUCGGUGGCGCGAUACAGCCAACGUCCUCAACCUCCACUGCAUCCCACCACAUGAUGAUGCCUGAAGAGCCUUGGUUUUUUG [G69C C70A A91C]"
  qualitative_label: "low"
- primary_sequence: "GACCGAUCUGCCCUUAGAGCUCGAGAACAUCUUCGGAUGCAGAGGAGUCAGGCUUCGGUGGCGCGAUAGCGCCAACGUCCUCAACCUCCAAUGCAUCCCACCAUAUGAUGAUGCCUGAAGAGCAUUGGUUUUUUG [A5G C15U G48U C104U C124A]"
  qualitative_label: "high"
- primary_sequence: "GACCAAUCUGCCCUCAGAGCUCGAGAACAUCUUCGGAUGCAGAGGAGGCAGGCUUCGGUGGCGCGAUAGCGCUAACGUCCUCAACCUCCAAUGCAUCCCACCACAUGAGGAUGCCUGAAGAGCCUUGGUUUUUUG [C73U U109G]"
  qualitative_label: "low"
- primary_sequence: "GACCAAUCUGCCCUCAGAGCUCGAGAACAUCUUCGGAUGCAGAGGAGGCAGGCUUCGGUGGCGCGCUAGCGCCAACGUCCUCACCCUCCAAUGCAUCCCACCACAUGAUGAUGCCUGAAGAGUCUUGGUUUUGUG [A66C A84C C123U U133G]"
  qualitative_label: "high"
- primary_sequence: "GACCAAUCUGCCCUCAGAGCUCGAGAACAUCUUCGGAUGCAGAGGAGGCAGGCUUCGGUGGCGCGAUAGCGCCAACGUCCUUAACCUCCAAUGCAUCCCACCACAUGAUGAUGUCUGAAGAGCCUUGGUUUUUUG [C82U C114U]"
  qualitative_label: "middle"
- primary_sequence: "GACCAAUCUGCCCUCAGAGCUCGAGAACAUCUUCGGAUGCAGAGGAGACAGGCUUCGGUGGCGCGAUAGCGCCAACGUCCUCAACCUCCAAUGCAUCCCACCACAAGAUGAUGCCUGAAGAGCCUUGGUUUUUUG [G48A U106A]"
  qualitative_label: "high"
- primary_sequence: "GACCAAUCUGCCCUCAGAGCUCGAGAACGUCUUCCGAUGCAGAGAAGGCAGGCUUCGGUGGCGCGAUAGCGCCAACGUCCUCAACCUCCAAUGCAUCCCGCCACAUGAUGACGCCCGAAGAGCCUUGGUUUUUUG [A29G G35C G45A A100G U112C U116C]"
  qualitative_label: "low"
- primary_sequence: "GACCAAUCUGGCCUCAGAGCUUGAGAACAUCUUCGGAUGCAGAGGAGGCAGGCUUCGGUGGCGCGAUAGCGCCAACGUCCUCAACCUCCAAUGCAUCCCACCACAUGAUGAUGCCUGAAGAGCCUUGGUUUUUUG [C11G C22U]"
  qualitative_label: "middle"
- primary_sequence: "GACCAAUUUGCCCUCAGAGCUCGAGAACAUCUUCGGAUGCAGAGGAGGCAGGCUUCGGUGGCGCGAUAGCGCCAACGUCCUCAACCUCCAAUACAUCCCACCACAUGAUUAUGCCUGAAGAGCCUUCGUUUUUUG [C8U G93A G110U G127C]"
  qualitative_label: "middle"
- primary_sequence: "GACCAAUCUGCCCUCAGAGCUCGAGCCCAUCUUCGGAUGCAGAGGAGGCAGGCUUCGGAGGCGCGAUAGCGUCAACGUCCUCAACCUCCAAUGCAUCCCACCACAUGAUGAUGCCUGAAGAGACUUGGUUUUUUG [A26C A27C U59A C72U C123A]"
  qualitative_label: "low"
- primary_sequence: "GACCAAUCUGCCCUCAGAGCUCGAGAACAUCUUCGGAUGCAGAGGAGGCAGGCUUCGGUGGCACGAUAGCGCCAACGUUCUCAACCUCCAAUGCAUCCCACCACAUGAUGAUGCCUGAAGAGCCUUGGUUUUUUG [G63A C79U]"
  qualitative_label: "middle"
- primary_sequence: "GACCAAUCUGCCCUCAGAGCUCGAGAACAUCUUCGGAUGCAGACGAUGCAGGAUUCGGUGGCGCGAUAGCGCCAAGGUCCUCAACCUCCAAUGCAUCCCACGACAUGAUCAUGCCUGAAGAGCCUUGGUUUUUUG [G44C G47U C53A C76G C102G G110C]"
  qualitative_label: "low"
- primary_sequence: "GACCAAUCUGCCCUCAGAGCUCGAGAACAUCUUCGGAUGCAGAGGAGGCAGGCUUCGGUGGCGCGAUAGCGCCAACGUCCUCAACCUCCAAUGCAUCCCACCACAUGAUGAUGCCUAAAGUGCCUUGGUUUUUUG [G117A A121U]"
  qualitative_label: "high"
- primary_sequence: "GACCAAUCUGCCCUCAGAGCUCGAGAACAUCUUCGGAUGCAGAGGAGGCAGGCUUCGGUGGCGCGAUAGCGCCAACGUCCUCAACCUCCAAGGCAUCCCACCACAUGAUGAUGCCUGAAGAGCCUUGGUUUUUUG [U92G]"
  qualitative_label: "middle"
- primary_sequence: "GACCCAUCUGCCCUCAGAGCUCGAGAACAUCUUCGGAUGCAUAGGAGGCAGGCUUCGGUGCCGCGAUAGCGCCAACGGCAUCAUCCUCCAAUGCAUCCCACCAGAUGAUGAUCCCUGAUGAGCCCUGGUUUUAUG [A5C G42U G61C U78G C80A A84U C104G G113C A119U U125C U133A]"
  qualitative_label: "low"
- primary_sequence: "GACCAAUCUGCCCUCAGAGCUCGAGAACAUCUUCGGAUGCAGAGGAGGCAGGCUUCUGUGGCGCGAUAGCGCCAACUUCCUCAACCUCCAAUGCAUCCCACCACAUGAUGAUACCUGAAGAGCCUUCGUUUUUUG [G57U G77U G113A G127C]"
  qualitative_label: "middle"
- primary_sequence: "GACCAAUCUGCCCUCAGAGCUCGAGAACAUCCUCGGAUGCAGAGGAGGCAGGCUUCGGUGGCGCGAUAGCGCCAACGUCCUCAACCUCCAAUGCAUCCCACCACGUGAGGAUGCCUAAAGAGCCUUGGUUUUUUG [U32C A105G U109G G117A]"
  qualitative_label: "low"
- primary_sequence: "GACCAAUCUGCCCUCAGAGCUCGAGAAAAUCUUCGGAUGCAGAGGAGGCAGGCUUCGGUGGCGCGAUAGCGCCAACGUCCUCAACCUCCAAUGCAUUCCACCACAUGAUCAUGCCUGAAGAGCCUUGGUUUUUUG [C28A C97U G110C]"
  qualitative_label: "middle"
- primary_sequence: "GACCAAUCUGCCCUCAGAGCUCGAGAACAUCUUCGGAUGCAGAGGAGGCAGGCUUAGGUGGCGCGAUAGCGUCAACGUCCUCAACCUCCAAUGCAUCCCACCACAUGAUGAUGCCUGAAGAGCCUUGGUUUUUUG [C56A C72U]"
  qualitative_label: "high"
